assay: AUC (0 to t) in ICR mouse at 1 mg/kg, iv; format: ADME, organism-based; details: in vivo
assay endpoint: AUC(0-t) (ng·h/mL)
Provide the reading as a plain figure in ng·h/mL.

**Query** May I ask what AUC(0-t) has been recorded for CCc1c(N(CC)C2CCOCC2)cc2oc(C3CCN(C(C)C)CC3)cc2c1C(=O)NCc1c(C)cc(C)[nH]c1=O ?
**Result** 483

---

assay: Cmax in ICR mouse at 10 mg/kg administered via oral gavage; assay type: ADME, organism-based; parameters: dose 10 mg/kg, route oral; conditions: in vivo
assay endpoint: Cmax (ng/mL)
Provide the reading as a plain figure in ng/mL.

**Query** May I ask what Cmax has been recorded for CCc1c(N(CC)C2CCOCC2)cc2oc(C3CCN(C(C)C)CC3)cc2c1C(=O)NCc1c(C)cc(C)[nH]c1=O ?
**Result** 257

Values were extracted from ChEMBL document CHEMBL4138300.
